pIC50: −log10 of the molar value.
Listing of pIC50 toward Stromelysin-2 (Homo sapiens, UniProt P09238), each taken from a published source.
endpoint.label: pIC50

# annotated cases, reported pIC50 shown
>>> print(df.to_string())
                                   compound  measured_number
0  O=C(O)[C@@H]1[C@@H](Cn2nnc3ccc(C(F)(F)F)cc3c2=O)CC[C@H]1C(=O)c1ccc(SCc2ccccc2)cc1 (single isomer, unassigned)             7.24
1  O=C(O)[C@H]1[C@H](Cn2nnc3ccc(C(F)(F)F)cc3c2=O)CC[C@@H]1C(=O)c1ccc(OCCC2CCOCC2)cc1 (stereo in doubt)             5.29
2  O=C(O)[C@@H]1[C@@H](Cn2nnc3ccc(C(F)(F)F)cc3c2=O)CC[C@H]1C(=O)c1ccc(OCCC2CCCC2)cc1 (single isomer, unassigned)             7.30
3  O=C(O)[C@H]1[C@H](Cn2nnc3ccc(C(F)(F)F)cc3c2=O)CC[C@@H]1C(=O)c1ccc(OCC2CCOCC2)cc1 (racemic)             4.96

P: O=C(O)[C@@H]1[C@@H](Cn2nnc3ccc(C(F)(F)F)cc3c2=O)CC[C@H]1C(=O)c1ccc(OCc2cccc(N3CCOC3=O)c2)cc1 (single isomer, unassigned)
Q: O=C(CC(CCn1nnc2ccccc2c1=O)C(=O)O)c1cc2cc(OCc3ccc(F)cc3)ccc2o1 (single isomer, unassigned; (+))
R: O=C(O)[C@H]1[C@H](Cn2nnc3ccc(C(F)(F)F)cc3c2=O)CC[C@@H]1C(=O)c1cc2cc(OCCc3ccccc3)ccc2o1 (racemic)
# sort list by recorded pIC50, greatest to least API: response body holds the labels in the requested order.
P, R, Q
(P: 7.28, R: 6.72, Q: 4.96)

---

Listing of IC50 toward Stromelysin-2 (Homo sapiens, UniProt P09238), each taken from a published source.
endpoint.label: IC50 (nM)

# annotated cases, reported IC50 shown
                                   compound  measured_number
0  Cc1ccc2nnn(C[C@@H]3CC[C@H](C(=O)c4ccc(OCc5ccccc5)cc4)[C@H]3C(=O)O)c(=O)c2c1 (racemic)               21
1  O=C(CC(CCn1nnc2ccccc2c1=O)C(=O)O)c1coc2cc(OCC3CCCC3)ccc12 (single isomer, unassigned; (+))            12000
2  O=C(O)[C@@H]1[C@@H](Cn2nnc3ccc(C(F)(F)F)cc3c2=O)CC[C@H]1C(=O)c1ccc(OCC2CCCC2)cc1 (single isomer, unassigned)               28
3  O=C(CC(CCn1nnc2ccccc2c1=O)C(=O)O)c1noc2cc(OCC3CCCCC3)ccc12 (racemic)            14000
4  O=C(O)[C@H]1[C@H](Cn2nnc3ccccc3c2=O)CC[C@@H]1C(=O)c1ccc(OCc2ccc(F)cc2)cc1 (racemic)               33

a: O=C(O)[C@@H]1[C@@H](Cn2nnc3ccc(C(F)(F)F)cc3c2=O)CC[C@H]1C(=O)c1ccc(SCC2CCOCC2)cc1 (single isomer, unassigned)
b: O=C(CC(CCn1nnc2ccccc2c1=O)C(=O)O)c1coc2cc(OCCC3CCOCC3)ccc12 (racemic)
Which record would sort first by descending IC50, a or b ? Give the label of your selection.
b

1: Cc1cccc(COc2ccc(C(=O)[C@@H]3CC[C@H](Cn4nnc5ccc(C(F)(F)F)cc5c4=O)[C@H]3C(=O)O)cc2)c1 (single isomer, unassigned)
2: O=C(CC(CCn1nnc2ccccc2c1=O)C(=O)O)c1cc2ccc(OCC3CC3)cc2s1 (racemic)
3: O=C(O)[C@@H]1[C@@H](Cn2nnc3ccc(C(F)(F)F)cc3c2=O)CC[C@H]1C(=O)c1ccc(OCC2CCCCC2)cc1 (single isomer, unassigned)
Please produce an ascending ranking of these compounds based on IC50. API: response body holds the labels in the requested order.
3, 1, 2

A: O=C(O)[C@H]1[C@H](Cn2nnc3ccc(C(F)(F)F)cc3c2=O)CC[C@@H]1C(=O)c1ccc(OCc2cccc(C(F)(F)F)c2)cc1 (racemic)
B: CCCCCOc1ccc2c(C(=O)CC(CCn3nnc4ccccc4c3=O)C(=O)O)noc2c1 (racemic)
Which record would sort first by descending IC50, A or B ? Give the label of your selection.
B
(B: 6300 nM, A: 200 nM)

---

Listing of IC50 toward Stromelysin-2 (Homo sapiens, UniProt P09238), each taken from a published source.
endpoint.label: IC50 (nM)

# annotated cases, reported IC50 shown
>>> print(df.to_string())
                                   compound  measured_number
0  O=C(CC(CCn1nnc2ccccc2c1=O)C(=O)O)c1cc2cc(OCCC3CCOCC3)ccc2o1 (racemic)             7000
1  Cc1ccc2nnn(C[C@@H]3CC[C@H](C(=O)c4ccc(OCCC5CCOCC5)cc4)[C@H]3C(=O)O)c(=O)c2c1 (racemic)               58
2  O=C(O)[C@@H]1[C@@H](Cn2nnc3ccc(C(F)(F)F)cc3c2=O)CC[C@H]1C(=O)c1ccc(OCc2cccc(Cl)c2)cc1 (single isomer, unassigned)               87

1: COC(=O)Nc1cccc(COc2ccc(C(=O)[C@@H]3CC[C@H](Cn4nnc5ccc(C(F)(F)F)cc5c4=O)[C@H]3C(=O)O)cc2)c1 (stereo in doubt)
2: O=C(O)[C@@H]1[C@@H](Cn2nnc3ccccc3c2=O)CC[C@H]1C(=O)c1ccc(OCC2CCOCC2)cc1 (stereo in doubt)
Identify the entry with the smaller IC50: 1 or 2 . Give the label of your selection.
1

---

Listing of pIC50 toward Stromelysin-2 (Homo sapiens, UniProt P09238), each taken from a published source.
pIC50: −log10 of the molar value.
endpoint.label: pIC50

# annotated cases, reported pIC50 shown
                                   compound                                       tgt  measured_number
0  O=C(O)[C@H]1[C@H](Cn2nnc3ccccc3c2=O)CC[C@@H]1C(=O)c1ccc(OCc2ccccc2)cc1  Stromelysin-2 (Homo sapiens, UniProt P09238)             7.76
1  CCCCCOc1ccc(C(=O)[C@H]2CC[C@@H](Cn3nnc4ccc(C)cc4c3=O)[C@@H]2C(=O)O)cc1 (racemic)  Stromelysin-2 (Homo sapiens, UniProt P09238)             7.09

A: CCCCCOc1ccc2c(C(=O)CC(CCn3nnc4ccccc4c3=O)C(=O)O)coc2c1 (racemic)
B: O=C(CC(CCn1nnc2ccccc2c1=O)C(=O)O)c1cc2cc(OCCc3ccccc3)ccc2o1 (single isomer, unassigned; (+))
Identify the entry with the smaller pIC50: A or B . Give the label of your selection.
A
(A: 4.66, B: 4.89)

---

Listing of IC50 toward Stromelysin-2 (Homo sapiens, UniProt P09238), each taken from a published source.
endpoint.label: IC50 (µM)

>>> df
                                   molecule  endpoint_label  measured_number
0  O=C(O)[C@H]1[C@H](Cn2nnc3ccc(C(F)(F)F)cc3c2=O)CC[C@@H]1C(=O)c1ccc(OCC2CCCCC2)cc1 (racemic)            IC50            0.021
1  Cc1ccc2nnn(C[C@@H]3CC[C@H](C(=O)c4ccc(OCc5cccc(Cl)c5)cc4)[C@H]3C(=O)O)c(=O)c2c1 (racemic)            IC50            0.035
2  O=C(CC(CCn1nnc2ccccc2c1=O)C(=O)O)c1cc2cc(OCCC3CCCC3)ccc2o1 (racemic)            IC50              9.3

P: O=C(CC(CCn1nnc2ccccc2c1=O)C(=O)O)c1cc2ccc(OCCc3ccccc3)cc2s1 (racemic)
Q: O=C(CC(CCn1nnc2ccc(C(F)(F)F)cc2c1=O)C(=O)O)c1noc2cc(OCC3CCOCC3)ccc12 (racemic)
R: O=C(CC(CCn1nnc2ccccc2c1=O)C(=O)O)c1noc2cc(OCCc3ccccc3)ccc12 (racemic)
S: O=C(O)[C@H]1[C@H](Cn2nnc3ccccc3c2=O)CC[C@@H]1C(=O)c1ccc(OCC2CCOCC2)cc1 (stereo in doubt)
Please produce an ascending ranking of these molecules based on IC50. API: response body holds the labels in the requested order.
S, P, Q, R
